Source listed as ChEMBL document CHEMBL4396885.

- Test system: A549
- TEST SUMMARY: Induction of apoptosis in human A549 cells assessed as necrotic cells at 0.5 uM after 48 hrs by Annexin V-FITC/propidium iodide staining based flow cytometry (reference value: 0.135%)
- Format: functional
ASSAY READOUT: Activity (%)
Write the answer as a number in %, unit excluded.

Reference set, count: 3
MOLECULE	TARGET OR SYSTEM	UNITS	NUMERIC RESULT
CC(=O)Nc1ccc(C(=O)Nc2ccccc2N)cc1 [TACEDINALINE]	A549	%	4.6
Nc1ccc(F)cc1NC(=O)c1ccc(CNC(=O)/C=C/c2cccnc2)cc1	A549	%	0.455
COc1ccc(SCc2ccc(C(=O)Nc3ccccc3N)cc2)cc1	A549	%	13.8

Param item = CCc1ccc(SCc2ccc(C(=O)Nc3ccccc3N)cc2)cc1 ; retrieve measured Activity. 1.14
